# Test system: Saos-2
# Test Protocol: Inhibition of cell growth, MTT assay, Saos-2
# Assay type: cell-based
# Conditions Used: Homo sapiens; Saos-2, MTT assay
Quantity Kind: pIC50
Give only the number. pIC50 is defined as minus log10 of concentration in molar units.

Answered examples (3):
substance_smiles=Nc1nc(Nc2ccc(S(N)(=O)=O)cc2)sc1C(=O)c1c(F)cccc1C(F)(F)F quantity_kind=pIC50 meas_value=5.96
substance_smiles=Nc1nc(Nc2ccc(N3CCNCC3)cc2)sc1C(=O)c1c(F)cc(F)cc1F quantity_kind=pIC50 meas_value=5.66
substance_smiles=Nc1nc(Nc2ccc(N3CCNC(=O)C3)cc2)sc1C(=O)c1c(F)cccc1F quantity_kind=pIC50 meas_value=5.59

pIC50 for CNS(=O)(=O)c1ccc(Nc2nc(N)c(C(=O)c3c(F)cccc3F)s2)cc1 is 6.51

pIC50 for Cc1ncsc1C(=O)c1sc(Nc2ccc(S(N)(=O)=O)cc2)nc1N is 5.60

pIC50 for Cc1cc(C(=O)c2sc(Nc3ccc(S(N)(=O)=O)cc3)nc2N)c(C)s1 is 5.89

###

# Test system: U2-OS
# Test Protocol: Inhibition of cell growth, MTT assay, U2-OS
# Assay type: cell-based
# Conditions Used: Homo sapiens, U2OS
Define the label as T when IC50 is strictly less than 2000 nM and as F in all remaining cases.

compound="Cc1ccsc1C(=O)c1sc(Nc2ccc(N(C)CCN(C)C)cc2)nc1N [C(117)]" group_label=T
compound="CN(C)CCN(C)c1ccc(Nc2nc(N)c(C(=O)c3c(F)cccc3F)s2)cc1 [C(110)]" group_label=T
compound="Nc1nc(Nc2ccc3nc[nH]c3c2)sc1C(=O)c1c(Cl)cc(C(F)(F)F)cc1Cl [C(37)]" group_label=F

Inquiry: Decide: IC50 of Nc1nc(Nc2ccc(N3CCNCC3)cc2)sc1C(=O)c1c(Cl)cccc1Cl [H(3)] strictly below 2000 nM?
Reply text: F

Inquiry: Decide: IC50 of Cc1cc(N)sc1C(=O)c1sc(Nc2ccc(S(N)(=O)=O)cc2)nc1N [D(5)] strictly below 2000 nM?
Reply text: F

Inquiry: Decide: IC50 of COc1ccc(Nc2nc(N)c(C(=O)c3ccccc3C#N)s2)cc1 [F] strictly below 2000 nM?
Reply text: T

###

# Target Desc: CDK2/cyclin A (Homo sapiens, UniProt P24941)
# Construct: made in house; host or cells: CDK2: insect cells (baculovirus); cyclin A: E. coli, then limited proteolysis
# Test Protocol: Inhibition of CDK2/cyclin A retinoblastoma kinase activity
# Assay type: biochemical
# Conditions Used: read-out: Ki CDK 2/A
Define the label as 1 when Ki is strictly less than 300 nM and as 0 in all remaining cases.

Some solved cases for reference:
substance_smiles=Cc1ccc(C(=O)c2sc(Nc3ccc(-n4ccnc4)cc3)nc2N)c(C)c1 group_label=0
substance_smiles=NC(=O)N1CCN(c2ccc(Nc3nc(N)c(C(=O)c4c(F)cccc4F)s3)cc2)CC1 group_label=1
substance_smiles=Nc1nc(Nc2ccc3nc[nH]c3c2)sc1C(=O)c1sc(Br)cc1Br group_label=1
substance_smiles=Nc1nc(Nc2ccc(N3CCN(CC4CC4)CC3)cc2)sc1C(=O)c1c(F)cccc1F group_label=0
substance_smiles=COc1ccc(Nc2nc(N)c(C(=O)c3ccccc3I)s2)cc1 group_label=0
substance_smiles=CN(C)CCCN(C)c1ccc(Nc2nc(N)c(C(=O)c3c(F)cccc3F)s2)cc1 group_label=0
substance_smiles=CN1CCN(c2ccc(Nc3nc(N)c(C(=O)c4c(Cl)cc(Br)c(N)c4Cl)s3)cc2)CC1 group_label=0
substance_smiles=CN(C)c1ccc(Nc2nc(N)c(C(=O)c3ccccn3)s2)cc1 group_label=0
substance_smiles=CN1CCN(S(=O)(=O)c2ccc(Nc3nc(N)c(C(=O)c4c(F)cccc4F)s3)cc2)CC1 group_label=1
substance_smiles=CN1CCN(c2ccc(Nc3nc(N)c(C(=O)c4c(Cl)cccc4Cl)s3)cc2)CC1 group_label=0

Inquiry: Decide: Ki of Cc1cc(C)c(C(=O)c2sc(Nc3ccc4nc[nH]c4c3)nc2N)c(C)c1 strictly below 300 nM?
Reply text: 1

Inquiry: Decide: Ki of Cc1ccc(C(=O)c2sc(Nc3ccccc3)nc2N)cc1 strictly below 300 nM?
Reply text: 0

Inquiry: Decide: Ki of Nc1nc(Nc2ccc3nc[nH]c3c2)sc1C(=O)c1ccccc1[N+](=O)[O-] strictly below 300 nM?
Reply text: 1

Inquiry: Decide: Ki of COc1ccc(Nc2nc(N)c(C(=O)c3ccccc3[N+](=O)[O-])s2)cc1 strictly below 300 nM?
Reply text: 0

Inquiry: Decide: Ki of CN1CCN(c2ccc(Nc3nc(N)c(C(=O)c4c(F)cccc4C(F)(F)F)s3)cc2)CC1 strictly below 300 nM?
Reply text: 0

Inquiry: Decide: Ki of Nc1nc(Nc2ccc(S(N)(=O)=O)cc2)sc1C(=O)c1c(F)cc(F)cc1F strictly below 300 nM?
Reply text: 1
